Measured values drawn from PubChem BioAssay (NCI) for this set.

- Tested on: ACHN renal
- Protocol notes: NCI tumour cell line growth inhibition, 48 h
Quantity: log10 TGI (log10 of the value in µM)
All values: log10 TGI [µM].

Please review the following examples before continuing.
C[C@]12CC[C@@H]3c4cc(OC(F)F)c(OS(N)(=O)=O)cc4CC[C@H]3[C@@H]1CC[C@@H]2O: 1.69
Clc1cc(Cl)cc(N=C/C=C/Nc2cc(Cl)cc(Cl)c2)c1: 1.65
Cc1nc2ccc(C(F)(F)F)cc2nc1NCc1ccc(Cl)c(Cl)c1: 1.45
CCCCCCNC(=O)Oc1ccc(/C(=C(\C)c2ccc(Cl)cc2)c2ccc(OCCN3CCCCC3)cc2)cc1: 0.98

Items follow; give log10 TGI for each.
1. C[N+](C)(C)CC1CCCC1=O (stereo not given)
2. CC1OC(OC2C(O)CC(OC3C(O)CC(OC4CCC5(C)C(CCC6C5CC(O)C5(C)C(C7=CC(=O)OC7)CCC65O)C4)OC3C)OC2C)CC(O)C1O (stereo not given)

1. 1.00
2. -0.90

---

- System: SK-MEL-5 melanoma
- Protocol notes: NCI tumour cell line growth inhibition, 48 h
Answer each item with its documented TGI.

Recorded TGI, per entry:
CC12C=CC(=O)C=C1CCC1C3CCC(O)(C(=O)CO)C3(C)CC(O)C12F (centres undefined): > 100 µM
c1ccc2oc(-c3ccc(-c4nc5ccccc5o4)c4c3CC4)nc2c1: > 100 µM
COC(=O)c1cncc(/C=C/c2c(C)cc(O)cc2C)c1: > 16.9 µM
CCOC(=O)NNC(=O)NCc1cccc(CNC(=O)NNC(=O)OCC)c1: > 100 µM
CCOC(=O)/C=C/CCO[Si](C)(C)C(C)(C)C: > 100 µM
COc1cc2c(c(O)c1OC)C(=O)[C@@H]1CCC(=O)N1C2: > 100 µM
CCCCC1(C)C=C/C(=C2/C(=O)O/C(=C\C(=O)O)C2=O)O1 (centres undefined): > 100 µM
Cc1cn(CCCCC2=NCCCN2)c(=O)[nH]c1=O: > 38.1 µM
COC(=O)/C=C(\CC(=O)OC)n1nnnc1[C@@H]1C[C@H](COC(c2ccccc2)(c2ccccc2)c2ccccc2)[C@H]2OC(C)(C)O[C@H]21: > 100 µM
CCc1c(C)c(C#N)c(=S)n(C2OC(COC(C)=O)C(OC(C)=O)C(OC(C)=O)C2OC(C)=O)c1-c1ccccc1 (centres undefined): > 31.6 µM

For every item below, please supply its TGI.
1. Cn1c(-c2ccccc2)cc(-c2cccs2)c1-c1cccs1
2. CCOC(=O)c1sc2nc(SC)nc3c2c1NCN3c1ccc2c(c1)OCO2

["> 100 µM", "> 100 µM"]

---

- Tested on: RPMI-8226 leukemia
- Protocol notes: NCI tumour cell line growth inhibition, 48 h
Quantity: TGI

Take a look at these entries with their results.
CCCCC1(C)C=C/C(=C2/C(=O)O/C(=C\C(=O)O)C2=O)O1 (stereo not drawn): > 100 µM
COC(=O)c1cc2c(c3c1CC(Cc1ccccc1)C3=O)CCC2 (stereo not drawn): > 100 µM

Turning now to a further compound:
Provide TGI value for the following compound: Cc1cc(N=Nc2ccccc2C)ccc1N 34.5 µM

---

Exercise: for every item that follows, state its recorded GI50.
- Test system: MALME-3M melanoma
- Protocol notes: NCI tumour cell line growth inhibition, 48 h

CC(C)(O)CNc1nc(Nc2ccnc(C(F)(F)F)c2)nc(-c2cccc(C(F)(F)F)n2)n1: 21100 nM
CC1(C)CC(=O)C2=C(C1)OC(N)=C(c1nc(-c3ccccc3)cs1)C2c1ccc(Br)cc1 (centres undefined): > 150 µg/mL
N#CCCN1C/C(=C/c2ccc(Cl)cc2)C(=O)/C(=C/c2ccc(Cl)cc2)C1: 2240 nM

Return GI50 for the following compound: COc1cc2c(cc1OCCCCN1CCN(C(=S)SCCC(C#N)(c3ccccc3)c3ccccc3)CC1)N=C[C@@H]1CCCN1C2=O 1360 nM

---

- System: SW-620 colon
- Protocol notes: NCI tumour cell line growth inhibition, 48 h
Quantity: TGI

CCOC(=O)C1(F)S(=O)(=O)OCCOS1(=O)=O: > 100 µM
Nc1c([N+](=O)[O-])nc(Cl)c2nncn12: > 100 µM
O=C(CC1(O)C(=O)N(Cc2ccccc2)c2ccccc21)c1ccc(C(=O)NCC2CCC3(CC2)OOC2(CCCCC2)OO3)cc1 (stereo unspecified): > 41.5 µM
O=[N+]([O-])c1ccc(N2CCOCC2)c2c1no[n+]2[O-]: 2.48 µM
CCC(=O)C(CCN1CCC2(CCCc3ccccc32)CC1)(c1ccccc1)c1ccccc1: 12.9 µM

Recall and state the measured TGI for Cc1ccc(NC(=O)c2cc(S(=O)(=O)Nc3n[nH]c(=O)[nH]3)c(SSc3cc(Cl)c(C(=O)Nc4ccc(C)cc4)cc3S(=O)(=O)Nc3n[nH]c(=O)[nH]3)cc2Cl)cc1 . > 100 µM

---

- Test system: SF-268 CNS
- Protocol notes: NCI tumour cell line growth inhibition, 48 h; in the data active = GI50 below about 0.43 µM; inactive = the rest
// allowed return values: active, inactive

These solved cases illustrate the format of a correct answer.
C[C@]12CC[C@@H]3c4cc(OC(F)F)c(OS(N)(=O)=O)cc4CC[C@H]3[C@@H]1CC[C@@H]2O: inactive
C=CCN1CC(=O)N2[C@@H](Cc3ccc(O)cc3F)C(=O)N(Cc3cccc(N4CC(N5CCN(CC)CC5)C4)n3)C[C@@H]2N1C(=O)NCc1ccccc1: active
COc1ccc(/C=C(\C#N)n2nnc3c(F)cccc32)cc1: inactive

We next turn to a different compound, shown below.
Query: recorded result category for C[CH2][Sn]([CH2]C)([O]C(=O)c1ccccc1OC)[O][Sn]([CH2]C)([CH2]C)[O]C(=O)c1ccccc1OC in this test inactive

---

- System: BT-549 breast
- Protocol notes: NCI tumour cell line growth inhibition, 48 h
Quantity: TGI

// known answers, use as guide
CCOC(=O)c1c(C)n(-c2ccc(Cl)cc2)c2c1cc(O)c1[nH]c3c(c12)CCCC3: > 100 µM
O=C(/C=C/c1ccccc1)Oc1ccc(C(=O)/C=C/c2ccc(Cl)cc2)cc1: > 100 µM

Return reported TGI. Input compound: c1ccc2oc(-c3ccc(-c4nc5ccccc5o4)c4c3CC4)nc2c1 > 100 µM

---

- Tested on: HCT-15 colon
- Protocol notes: NCI tumour cell line growth inhibition, 48 h
I'd appreciate it if you could supply TGI values for the items below.

Nc1nc(O)c2ncn([C@H]3CC[C@@H](CO)O3)c2n1: > 100 µM
COc1ccc(NC(=O)C2CCC(CNS(=O)(=O)c3ccccc3)CC2)cc1OC (stereo not given): > 100 µM
O=C(CCCCCCN1CC(=O)N2[C@@H](c3ccc(Cl)c(Cl)c3)c3[nH]c4ccccc4c3C[C@H]2C1=O)NO: > 33.3 µM
O=C1Cc2c([nH]c3ccc(Br)cc23)-c2cc(O)c(O)cc2N1: > 100 µM

Now look at this one.
Retrieve TGI on HCT-15 colon; query Nc1[nH]c(=O)nc2c1cnn2C1CCCCO1 (stereo not given) > 100 µM

---

- Tested on: M14 melanoma
- Protocol notes: NCI tumour cell line growth inhibition, 48 h
Quantity: TGI

Before answering, review these 6 worked examples.
COc1cc(O)c2c(=O)c(O)c(-c3ccc(O)c(OC)c3)oc2c1: > 100 µM
CON(C)c1nc(N(C)OC)nc(N(C)OC)n1: > 10 µM
CC1(c2nc3ccccc3[nH]2)CCC(C(=O)O)C(C)(C)O1 (configuration not stated): > 100 µM
Cc1ccc(/C(C#N)=C/c2cccc([N+](=O)[O-])c2)cc1: > 100 µM
COc1cc2c(c(O)c1OC)C(=O)[C@@H]1CCC(=O)N1C2: > 100 µM
CC(C)C(C(=O)O)N1C(=O)c2ccccc2C1=O (configuration not stated): > 100 µM

Could I get TGI for every one of these entries?
1. CC1(C)OCC([C@H]2O[C@@H](CC(=S)NCCCCCCCCCCCCNC(=S)C[C@H]3O[C@@H](C4COC(C)(C)O4)[C@H]4OC(C)(C)O[C@H]43)[C@H]3OC(C)(C)O[C@H]32)O1 (some centres not stated)
2. Cc1ccc(NC(=O)c2cc(S(=O)(=O)Nc3n[nH]c(=O)[nH]3)c(SSc3cc(Cl)c(C(=O)Nc4ccc(C)cc4)cc3S(=O)(=O)Nc3n[nH]c(=O)[nH]3)cc2Cl)cc1
3. O=C(c1nc2ccccc2[nH]c1=O)C(O)c1ccccc1 (configuration not stated)
4. CCOC(=O)C(=CNc1ccc(NC2=NCC(C)S2)cc1)C(=O)OCC (configuration not stated)
5. COC(=O)c1ccc2c(c1)S/C(=C/c1ccc3ccc4cccc5ccc1c3c45)S2
6. CC12C=CC(=O)C=C1CCC1C3CCC(O)(C(=O)CO)C3(C)CC(O)C12F (configuration not stated)

1. > 100 µM
2. > 100 µM
3. > 100 µM
4. > 90.7 µM
5. > 100 µM
6. > 100 µM
